Test system: RXF 393 renal
Experiment: NCI tumour cell line growth inhibition, 48 h
quantity kind: TGI (µM)
Dear colleague, please return just the value in µM, with no unit written.

TGI lookup needed for CCN(CC)c1ccc(N=C2C=CC(=O)c3ncccc32)c(C)c1 , thanks.
12.6

Item: Cc1[nH]c(C(=O)Nc2ccc(C(=O)N3CCNCC3)cc2OC(C)C)c(Cl)c1Cl
3.25

N#CC(C#N)=Cc1c(O)ccc2ccccc12 ?
31.2

Note, next up: CC(=O)NC1=C(C)C(=O)c2c(nc3n2CCC3O)C1=O (stereo not given)
48.3

// repeat for NS(=O)(=O)c1ccc(C2C3=C(CCCC3=O)OC3=C2C(=O)c2ccccc2C3=O)cc1 (stereo not given) and report
2.84

Similarly, CCc1ccc(-c2ccc(=O)n(-c3ccc(S(N)(=O)=O)cc3)n2)cc1 ?
31.5

Here is the next compound: CC1=C(SCc2ccccc2)C(=O)c2ccccc2C1=O
30.4

Item: CC1CC[C@@]2(OC1)O[C@H]1C[C@H]3[C@@H]4CC[C@H]5C[C@@H](OC6OC(CO)C(OC7OC(CO)C(OC8OC(CO)C(O)C(OC9OC(C)C(OC%10OC(C)C(O)C(O)C%10O)C(O)C9O)C8OC8OCC(O)C(O)C8O)C(O)C7O)C(O)C6O)CC[C@]5(C)[C@H]4CC(=O)[C@]3(C)[C@H]1[C@@H]2C (stereo not given in full)
35.7

Try this compound too: C1#Cc2ccccc2OCCOc2ccccc2C#Cc2ccccc2OCCOc2ccccc21
35.4

Entry COc1ccccc1/C=C1\CCC(CNc2ccc(Cl)cc2)C1=O (stereo not given) please
30.3

What would you report for COc1ccc(Nc2ncccc2/C=C/C(=O)c2cc(OC)c(OC)c(OC)c2)cc1 ?
2.82

What do we get for C=C1C(=O)O[C@H]2C/C(C)=C/CC/C(C)=C/CC[C@@](C)(O)[C@@H](I)C[C@@H]12 ?
13.2

Follow-up entry: COc1ccc(C(O)c2cc3c(N)c(C(=O)Nc4cccc(Cl)c4C)sc3nc2C)cc1 (stereo not given)
1.42

Another compound to check: CC(=O)OCc1cc(=O)n(C)c2c3c4c(cc12)c(C)cc(=O)n4CO3
3.33

Further, for CN(C)c1ccc(C(=O)c2ccc(N(C)C)c(N)c2)cc1N ?
18.4

Item: CC(=O)O[C@H]1CC[C@@]2(C)C(CC[C@]3(C)C2CC[C@]2(C)Oc4c(C)cc(O)cc4C[C@@H]23)C1(C)C (stereo not given in full)
7.09

Similarly, Cc1nc2cncc(C#Cc3cncc(C(=O)Nc4ccc(CN5CCN(C)CC5)c(C(F)(F)F)c4)c3)c2nc1C ?
1.76

Also check Nc1nc2c(c3ncccc13)C(c1ccc(Cl)c(Cl)c1)Cc1ncccc1-2 (stereo not given)
5.25

Ok, now CCN(CC)CCOc1ccc(Nc2ncc3cc(-c4c(Cl)cccc4Cl)c(=O)n(CCOC)c3n2)cc1
0.133

----------
System: LOX IMVI melanoma
Assay: NCI tumour cell line growth inhibition, 48 h; in the data active means GI50 below about 0.43 µM; inactive means the rest
Choose the fitting class; nothing outside t for active, f for inactive is accepted.

So what was the verdict on CN(C)C(=S)NN=C(c1ccccn1)c1ccccn1 in this test?
t

Now try N#Cc1cccc(C(=O)c2cnn(-c3ccc(F)cc3)c2N)c1 .
f

Entry to check: CSc1ccc(-c2cc(-c3ccc(NC(=O)CCCN4CCCC4)cc3)nc(-c3ccc(NC(=O)CCCN4CCCC4)cc3)c2)cc1
f

Further, for CC1=C(C(=O)Nc2ccc3[nH]ncc3c2)C(c2ccc(F)cc2)NC(=O)N1 (stereo unspecified) ?
f

Next: Nc1ccc(-c2nc3ccccc3[nH]2)c(O)c1
f

What do we get for O=C(Nc1ncc(Cc2ccccc2)s1)c1ccc2c(c1)OCCCO2 ?
t

// repeat for Cc1ccccc1S(=O)(=O)N1[C@H](c2ccc(Cl)cc2)C(C(=O)N[C@@H](Cc2ccccc2)C(N)=O)=C[C@@H]1C(C)(C)C and report
f

Param item: O=C(Cn1c(=O)c(-c2ccccc2)nc2ccccc21)c1cccnc1
f

Follow-up entry: CNc1nc(C)c(-c2nc(Nc3cccc(S(N)(=O)=O)c3)ncc2F)s1
t

Then what about the molecule COc1cc2c(c(OC)c1OC)-c1ccc(NNC(=S)N(Cc3cccc(C[N+](Cc4cccc(CNC56CC7CC(CC(C7)C5)C6)c4)(Cc4cccc(CNC56CC7CC(CC(C7)C5)C6)c4)Cc4cccc(CN(C(=S)NNc5ccc6c(cc5=O)[C@@H](NC(C)=O)CCc5cc(OC)c(OC)c(OC)c5-6)C56CC7CC(CC(C7)C5)C6)c4)c3)C34CC5CC(CC(C5)C3)C4)c(=O)cc1[C@@H](NC(C)=O)CC2 (stereo partly specified) ?
f

Same again, this time with COc1cc2c(cc1OCCCOC1=C=C=C(c3ccc4c(c3)c3cc(-c5ccc(OCCCOc6cc7c(cc6OC)C(=O)N6CCC[C@H]6C=N7)cc5)ccc3n4S(=O)(=O)c3ccc(C)cc3)C=C1)N=C[C@@H]1CCCN1C2=O
f

Next molecule: Fc1ccc(C2CC(c3cccc(Nc4ccncc4)c3)=NN2c2cc(Cl)cc(Cl)c2)cc1 (stereo unspecified)
f

Same read-out for O=C1c2ccccc2-c2nccc3cc(Cl)nc1c23 ?
f

Repeat for the following molecule: CCN(CC)c1ccc(N=C2C=C(C(=O)Nc3ccc(S(C)(=O)=O)cc3)C(=O)c3ccccc32)c(C)c1
f

Also CCCCCCCCCCCCCC[P+](CCCCCC)(CCCCCC)CCCCCC ?
t

Same again, this time with Nc1nc2c(c3ncccc13)C(c1ccc(Cl)c(Cl)c1)Cc1ncccc1-2 (stereo unspecified)
f
